Assay Context: in DMSO, 328.15 K
Reported Metric: solubility (mole fraction)
Please respond with just the number, no unit label.

Endpoint output: solubility (mole fraction) of O=[N+]([O-])c1cc([N+](=O)[O-])c(Cl)cc1Cl . Value?
0.368

----------
Assay Context: in methanol, 328.15 K
Reported Metric: solubility (mole fraction)
Please respond with just the number, no unit label.

Endpoint output: solubility (mole fraction) of O=[N+]([O-])c1cc([N+](=O)[O-])c(Cl)cc1Cl . Value?
0.0284

----------
Assay Context: in DMSO, 323.15 K
Reported Metric: solubility (mole fraction)
Please respond with just the number, no unit label.

Endpoint output: solubility (mole fraction) of O=[N+]([O-])c1cc([N+](=O)[O-])c(Cl)cc1Cl . Value?
0.332

----------
Assay Context: in ethyl acetate, 318.15 K
Reported Metric: solubility (mole fraction)
Please respond with just the number, no unit label.

Endpoint output: solubility (mole fraction) of O=[N+]([O-])c1cc([N+](=O)[O-])c(Cl)cc1Cl . Value?
0.251

----------
Assay Context: in chloroform, 298.15 K
Reported Metric: solubility (mole fraction)
Please respond with just the number, no unit label.

Endpoint output: solubility (mole fraction) of O=[N+]([O-])c1cc([N+](=O)[O-])c(Cl)cc1Cl . Value?
0.128

----------
Assay Context: in methanol, 303.15 K
Reported Metric: solubility (mole fraction)
Please respond with just the number, no unit label.

Endpoint output: solubility (mole fraction) of O=[N+]([O-])c1cc([N+](=O)[O-])c(Cl)cc1Cl . Value?
0.0112

----------
Assay Context: in acetonitrile, 318.15 K
Reported Metric: solubility (mole fraction)
Please respond with just the number, no unit label.

Endpoint output: solubility (mole fraction) of O=[N+]([O-])c1cc([N+](=O)[O-])c(Cl)cc1Cl . Value?
0.254

----------
Assay Context: in isopropanol, 313.15 K
Reported Metric: solubility (mole fraction)
Please respond with just the number, no unit label.

Endpoint output: solubility (mole fraction) of O=[N+]([O-])c1cc([N+](=O)[O-])c(Cl)cc1Cl . Value?
0.00763

----------
Assay Context: in acetone, 288.15 K
Reported Metric: solubility (mole fraction)
Please respond with just the number, no unit label.

Endpoint output: solubility (mole fraction) of O=[N+]([O-])c1cc([N+](=O)[O-])c(Cl)cc1Cl . Value?
0.169

----------
Assay Context: in dichloromethane, 303.15 K
Reported Metric: solubility (mole fraction)
Please respond with just the number, no unit label.

Endpoint output: solubility (mole fraction) of O=[N+]([O-])c1cc([N+](=O)[O-])c(Cl)cc1Cl . Value?
0.181

----------
Assay Context: in chloroform, 303.15 K
Reported Metric: solubility (mole fraction)
Please respond with just the number, no unit label.

Endpoint output: solubility (mole fraction) of O=[N+]([O-])c1cc([N+](=O)[O-])c(Cl)cc1Cl . Value?
0.149

----------
Assay Context: in chloroform, 328.15 K
Reported Metric: solubility (mole fraction)
Please respond with just the number, no unit label.

Endpoint output: solubility (mole fraction) of O=[N+]([O-])c1cc([N+](=O)[O-])c(Cl)cc1Cl . Value?
0.319

----------
Assay Context: in ethanol, 323.15 K
Reported Metric: solubility (mole fraction)
Please respond with just the number, no unit label.

Endpoint output: solubility (mole fraction) of O=[N+]([O-])c1cc([N+](=O)[O-])c(Cl)cc1Cl . Value?
0.0189

----------
Assay Context: in tetrachloromethane, 318.15 K
Reported Metric: solubility (mole fraction)
Please respond with just the number, no unit label.

Endpoint output: solubility (mole fraction) of O=[N+]([O-])c1cc([N+](=O)[O-])c(Cl)cc1Cl . Value?
0.049

----------
Assay Context: in methanol, 313.15 K
Reported Metric: solubility (mole fraction)
Please respond with just the number, no unit label.

Endpoint output: solubility (mole fraction) of O=[N+]([O-])c1cc([N+](=O)[O-])c(Cl)cc1Cl . Value?
0.0163

----------
Assay Context: in tetrachloromethane, 328.15 K
Reported Metric: solubility (mole fraction)
Please respond with just the number, no unit label.

Endpoint output: solubility (mole fraction) of O=[N+]([O-])c1cc([N+](=O)[O-])c(Cl)cc1Cl . Value?
0.0835

----------
Assay Context: in tetrachloromethane, 323.15 K
Reported Metric: solubility (mole fraction)
Please respond with just the number, no unit label.

Endpoint output: solubility (mole fraction) of O=[N+]([O-])c1cc([N+](=O)[O-])c(Cl)cc1Cl . Value?
0.0638

----------
Assay Context: in toluene, 328.15 K
Reported Metric: solubility (mole fraction)
Please respond with just the number, no unit label.

Endpoint output: solubility (mole fraction) of O=[N+]([O-])c1cc([N+](=O)[O-])c(Cl)cc1Cl . Value?
0.374

----------
Assay Context: in DMSO, 298.15 K
Reported Metric: solubility (mole fraction)
Please respond with just the number, no unit label.

Endpoint output: solubility (mole fraction) of O=[N+]([O-])c1cc([N+](=O)[O-])c(Cl)cc1Cl . Value?
0.192

----------
Assay Context: in acetone, 298.15 K
Reported Metric: solubility (mole fraction)
Please respond with just the number, no unit label.

Endpoint output: solubility (mole fraction) of O=[N+]([O-])c1cc([N+](=O)[O-])c(Cl)cc1Cl . Value?
0.206

----------
Assay Context: in n-butanol, 323.15 K
Reported Metric: solubility (mole fraction)

Endpoint output: solubility (mole fraction) of O=[N+]([O-])c1cc([N+](=O)[O-])c(Cl)cc1Cl . Value?
0.0201

----------
Assay Context: in acetonitrile, 303.15 K
Reported Metric: solubility (mole fraction)
Please respond with just the number, no unit label.

Endpoint output: solubility (mole fraction) of O=[N+]([O-])c1cc([N+](=O)[O-])c(Cl)cc1Cl . Value?
0.154

----------
Assay Context: in ethanol, 333.15 K
Reported Metric: solubility (mole fraction)

Endpoint output: solubility (mole fraction) of O=[N+]([O-])c1cc([N+](=O)[O-])c(Cl)cc1Cl . Value?
0.0282

----------
Assay Context: in acetonitrile, 328.15 K
Reported Metric: solubility (mole fraction)
Please respond with just the number, no unit label.

Endpoint output: solubility (mole fraction) of O=[N+]([O-])c1cc([N+](=O)[O-])c(Cl)cc1Cl . Value?
0.344

----------
Assay Context: in 1,2-dichloroethane, 333.15 K
Reported Metric: solubility (mole fraction)
Please respond with just the number, no unit label.

Endpoint output: solubility (mole fraction) of O=[N+]([O-])c1cc([N+](=O)[O-])c(Cl)cc1Cl . Value?
0.316

----------
Assay Context: in ethyl acetate, 323.15 K
Reported Metric: solubility (mole fraction)
Please respond with just the number, no unit label.

Endpoint output: solubility (mole fraction) of O=[N+]([O-])c1cc([N+](=O)[O-])c(Cl)cc1Cl . Value?
0.277

----------
Assay Context: in isopropanol, 318.15 K
Reported Metric: solubility (mole fraction)
Please respond with just the number, no unit label.

Endpoint output: solubility (mole fraction) of O=[N+]([O-])c1cc([N+](=O)[O-])c(Cl)cc1Cl . Value?
0.01

----------
Assay Context: in isopropanol, 303.15 K
Reported Metric: solubility (mole fraction)
Please respond with just the number, no unit label.

Endpoint output: solubility (mole fraction) of O=[N+]([O-])c1cc([N+](=O)[O-])c(Cl)cc1Cl . Value?
0.00429

----------
Assay Context: in ethanol, 303.15 K
Reported Metric: solubility (mole fraction)

Endpoint output: solubility (mole fraction) of O=[N+]([O-])c1cc([N+](=O)[O-])c(Cl)cc1Cl . Value?
0.00858

----------
Assay Context: in acetone, 308.15 K
Reported Metric: solubility (mole fraction)
Please respond with just the number, no unit label.

Endpoint output: solubility (mole fraction) of O=[N+]([O-])c1cc([N+](=O)[O-])c(Cl)cc1Cl . Value?
0.249

----------
Assay Context: in ethanol, 313.15 K
Reported Metric: solubility (mole fraction)

Endpoint output: solubility (mole fraction) of O=[N+]([O-])c1cc([N+](=O)[O-])c(Cl)cc1Cl . Value?
0.0126

----------
Assay Context: in DMF, 318.15 K
Reported Metric: solubility (mole fraction)
Please respond with just the number, no unit label.

Endpoint output: solubility (mole fraction) of O=[N+]([O-])c1cc([N+](=O)[O-])c(Cl)cc1Cl . Value?
0.378

----------
Assay Context: in dichloromethane, 308.15 K
Reported Metric: solubility (mole fraction)
Please respond with just the number, no unit label.

Endpoint output: solubility (mole fraction) of O=[N+]([O-])c1cc([N+](=O)[O-])c(Cl)cc1Cl . Value?
0.205

----------
Assay Context: in chloroform, 318.15 K
Reported Metric: solubility (mole fraction)
Please respond with just the number, no unit label.

Endpoint output: solubility (mole fraction) of O=[N+]([O-])c1cc([N+](=O)[O-])c(Cl)cc1Cl . Value?
0.238
